Measured values drawn from patent US20260137802A1 for this set.

subject.of.test: T1, human CD117 on cells (SKMEL-3 cells, CD34+ HSC) (human, UniProt P10721 26-976)
T1 construct: whole, on cells; also called CD117 on cell surfaces; CD117+ cells
assay.protocol: flow cytometry, CD34+ HSC, bivalent Fc
Assignment: determine reported EC50 for the given binders.
The response must be a number in nM with no trailing unit.

Entry P-0058 (Fc fusion, also called P58; bivalent form of P37; not shown: Fc fragment) QVQLVESGGGLVQAGDSLRLSCAVSGRTLSNYFMAWLRQAPGKEREFVAAIHWSLGSTYYQDPVKGRFTISRDKAKNTVYLQMNTLKPEDTATYICAAGQHLSGLGGSAWSIEGDYWGQGTQVTVSS : reported EC50 = ? 50

Any idea what EC50 was measured for P-0059 (Fc fusion, also called P59; bivalent form of P12; not shown: Fc fragment) QVQLVESGGGLVQAGGSLRLSCTASGDTFSSYSMGWFRQGPGKEREFVGGIRWSGGTTYYADSVKGRFTISRDNAKNTVYLQMNSLKREDTAVYYCAAVRRRWLIWQEEEYDYWGQGTLVTVSS ? 50

Find the recorded EC50 belonging to P-0056 (Fc fusion, the alignment instead labels 'P35/P57' and 'P32/P56'; also called P56; not shown: Fc fragment) QVQLVESGGGLVQAGGSLRLSCAASGGTFSIYPVGWFRQAPGKQREFVAAIGWSASGTYYGDSVEGRFTVSRDNARSTVYLRMSSLKPDDTAVYYCAAASGSNWRLGAIDEYDSWGQGTQVTVSS and report it. 10

Entry P-0053 (Fc fusion, also called P53; bivalent form of P10; not shown: Fc fragment) QVQLVESGGGLVQAGGSLRLSCVASGRTFSSYAMGWFRQGPGKEREFAAAILSNGLTTYYADSVKGRFTISRDNAKDTVYLQMNSLKPEDTANYYCAAAFTPEFRDGGIWDDASVDYWGQGTQVTVSS : reported EC50 = ? 1

Quick one: EC50 for P-0055 (Fc fusion, also called P55; bivalent form of P31; not shown: Fc fragment) EVQLVESGGGLVRAGGSLRLSCAASGRTFTYDARAWFRQAPGKEREFVAAISWSGGSTYYPNSMKGRFTISRDNAKNTVYLQMNSLKPEDTAVYYCAADESFPAYYSDYALYRYWGQGTLVTVSS ? 1
